Measured DC50 values are reported for all entries that follow.
Molecular target: UniProt:P03372
Sequence (P03372 whole entry): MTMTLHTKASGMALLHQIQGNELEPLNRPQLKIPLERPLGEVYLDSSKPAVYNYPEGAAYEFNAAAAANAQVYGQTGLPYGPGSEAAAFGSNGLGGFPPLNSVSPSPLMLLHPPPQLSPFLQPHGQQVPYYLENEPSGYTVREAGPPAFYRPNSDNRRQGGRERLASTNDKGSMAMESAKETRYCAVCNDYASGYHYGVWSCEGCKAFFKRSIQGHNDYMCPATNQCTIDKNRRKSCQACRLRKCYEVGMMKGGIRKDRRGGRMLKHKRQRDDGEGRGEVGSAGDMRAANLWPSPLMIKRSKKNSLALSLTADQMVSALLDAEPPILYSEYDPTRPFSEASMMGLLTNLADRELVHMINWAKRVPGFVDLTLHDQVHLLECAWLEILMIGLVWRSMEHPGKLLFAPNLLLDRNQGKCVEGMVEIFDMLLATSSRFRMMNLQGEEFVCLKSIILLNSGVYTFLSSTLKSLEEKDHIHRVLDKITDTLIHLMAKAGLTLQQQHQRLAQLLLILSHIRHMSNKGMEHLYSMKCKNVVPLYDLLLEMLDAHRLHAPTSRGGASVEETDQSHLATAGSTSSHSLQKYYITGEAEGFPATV
Assay: In-cell western blot analysis of relative ER percentage (Compounds B1-B278)
Type: cell-based
Details: ER degradation, 16 hours, read-out: ICW DC50
Procedure: In-cell western blot analysis. Cells are seeded in multi-well plates (e.g., at 40,000 or 10,000 cells/well). Diluted compounds at certain concentration are added (final 0.5% DMSO) and cells are incubated for […] (e.g., 16 hours). Formaldehyde (e.g., PBS:FA=9:1) is added and followed by washing with PBS. The cells are blocked with Licor blocking buffer (Li-Cor). […]

compound: C[C@@H]1Cc2c([nH]c3ccccc23)[C@@H](c2cnc(N3CC4(CCC(N5CCN6c7ccc8c(c7OC[C@H]6C5)CN(C5CCC(=O)NC5=O)C8=O)CC4)C3)nc2)N1CC(F)(F)CO (stereo partly drawn)
result: > 100 nM
--
compound: C[C@@H]1Cc2c([nH]c3ccccc23)[C@@H](c2c(F)cc(N3CCC(CN4CCN5c6c(ccc7c6CN(C6CCC(=O)NC6=O)C7=O)OC[C@@H]5C4)CC3)cc2F)N1CC(F)F (stereo partly drawn)
result: > 100 nM

The compound identified as C[C@@H]1Cc2c([nH]c3ccccc23)[C@@H](c2ccc(N3CCC4(CC3)CC(CN3CCN5c6ccc7c(c6OC[C@H]5C3)CN(C3CCC(=O)NC3=O)C7=O)CO4)cn2)N1CC(F)(F)F (stereo partly drawn) registered its DC50 at 10 to 100 nM

Data origin: patent US20260007681A1
